B1: Osa-1-4 twister ribozyme (parent)
chain: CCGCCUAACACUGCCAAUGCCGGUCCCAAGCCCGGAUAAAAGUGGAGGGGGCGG

Variants of: B1
Test: self-cleavage, relative activity (ratio to wild type); higher = more cleavage; co-transcriptional
ATTRIBUTE MEASURED: self-cleavage

MUTATION NOTATION: C25A U24A
QUANTITATIVE READOUT: 0.04
--
MUTATION NOTATION: G42A U12C
QUANTITATIVE READOUT: 0.1
--
MUTATION NOTATION: C21G G47C
QUANTITATIVE READOUT: 0.04
--
MUTATION NOTATION: A7G C26A
QUANTITATIVE READOUT: 0.04
--
MUTATION NOTATION: A17G A7U
QUANTITATIVE READOUT: 0.1
--
MUTATION NOTATION: A29U C32A
QUANTITATIVE READOUT: 0.04
--
MUTATION NOTATION: C26G U37G
QUANTITATIVE READOUT: 0.1

FYI, the data here is from the RNAGym collection of RNA variant scans (doi:10.1002/anie.201605470).
